I'd appreciate it if you could supply pEC50 values for the items below.
test: Inhibition of NS5A in HuH7 cell infected HCV genotype 1b Con1 assessed as decrease in viral replication after 3 days in presence of 40% human plasma by luciferase reporter gene assay
Friendly reminder that pEC50 comes from taking -log10 of the concentration in mol/L.

// query // lookup pEC50 for COC(=O)N[C@H](C(=O)N1CCC[C@H]1C(=O)Nc1ccc([C@H]2CC[C@H](c3ccc(NC(=O)[C@@H]4CCCN4C(=O)[C@@H](NC(=O)OC)C(C)C)cc3)N2c2ccc(C(C)(C)C)cc2)cc1)C(C)C
// result 10.05

// query Now consider COC(=O)N[C@H](C(=O)N1CCC[C@H]1c1nc2ccc([C@H]3CC[C@H](c4ccc5nc([C@@H]6CCCN6C(=O)[C@@H](NC(=O)OC)C(C)C)[nH]c5c4)N3c3ccc(C4CCCCC4)cc3)cc2[nH]1)C(C)C and answer again.
// result 9.75

// query Now consider COC(=O)N[C@H](C(=O)N1CCC[C@H]1c1nc2ccc([C@H]3CC[C@H](c4ccc5nc([C@@H]6CCCN6C(=O)[C@@H](NC(=O)OC)C(C)C)[nH]c5c4)N3c3cc(F)c(N4CCC(c5ccc(F)cc5)CC4)c(F)c3)cc2[nH]1)C(C)C and answer again.
// result 9.90

// query Now consider COC(=O)N[C@H](C(=O)N1CCC[C@H]1c1nc2ccc([C@H]3CC[C@H](c4ccc5nc([C@@H]6CCCN6C(=O)[C@@H](NC(=O)OC)C(C)C)[nH]c5c4)N3c3cc(F)c(N4CCC(c5ccccc5)CC4)c(F)c3)cc2[nH]1)C(C)C and answer again.
// result 9.74

// query Now consider COC(=O)N[C@H](C(=O)N1CCC[C@H]1c1nc2ccc([C@H]3CC[C@H](c4ccc5nc([C@@H]6CCCN6C(=O)[C@@H](NC(=O)OC)C(C)C)[nH]c5c4)N3c3ccc(C(C)(C)C)cc3)cc2[nH]1)C(C)C and answer again.
// result 9.57

// query Now consider COC(=O)N[C@H](C(=O)N1CCC[C@H]1c1nc2ccc([C@H]3CC[C@H](c4ccc5nc([C@@H]6CCCN6C(=O)[C@@H](NC(=O)OC)C(C)C)[nH]c5c4)N3c3ccc(N4CCOCC4)c(F)c3)cc2[nH]1)C(C)C and answer again.
// result 9.04

// query Now consider COC(=O)N[C@H](C(=O)N1CCC[C@H]1c1nc2ccc([C@H]3CC[C@H](c4ccc5nc([C@@H]6CCCN6C(=O)[C@@H](NC(=O)OC)C(C)C)[nH]c5c4)N3c3ccc(N4CCOCC4)cc3)cc2[nH]1)C(C)C and answer again.
// result 8.68

// query Now consider COC(=O)N[C@H](C(=O)N1CCC[C@H]1c1nc2ccc([C@H]3CC[C@H](c4ccc5nc([C@@H]6CCCN6C(=O)[C@@H](NC(=O)OC)C(C)C)[nH]c5c4)N3c3ccc(C4CC4)cc3)cc2[nH]1)C(C)C and answer again.
// result 9.45

// query Now consider COC(=O)N[C@H](C(=O)N1CCC[C@H]1c1nc2ccc([C@H]3CC[C@H](c4ccc5nc([C@@H]6CCCN6C(=O)[C@@H](NC(=O)OC)C(C)C)[nH]c5c4)N3c3ccc(-c4ccccc4)cc3)cc2[nH]1)C(C)C and answer again.
// result 9.97
